Data credit: patent US20160279215A1

Molecular target: HLA-A*02:01 (Homo sapiens, UniProt P04439, D140Y/D185E/D98H/E176V/E277Q/G131W/G231S/I119V/I121R/I166T/I218V/L300P/L318F/N151K/N90K/P208A/P217A/Q86G/Q94H/R138H/R169H/T345S)
Construct: made in house
Assay: MHC binding assay: UV-ligand exchange with β2m ELISA (peptide exchange yield)
Conditions: binding to HLA-A*02:01 evaluated by peptide exchange yield (UV-ligand exchange, β2m ELISA)
PROPERTY: Peptide exchange

INSERT INTO results (substance, observed_value) VALUES
  ('14 (YTFSGDVQL; listed as Homo sapiens) [compound 14]', '+++ (≧50 = +++)'),
  ('99 (TLFGIQLTEA; listed as Homo sapiens) [compound 99]', '+++ (≧50 = +++)'),
  ('286 (FLTEMVHFI; listed as Homo sapiens) [compound 286]', '+++ (≧50 = +++)');
